B1: Hairpin Ribozyme (parent)
chain: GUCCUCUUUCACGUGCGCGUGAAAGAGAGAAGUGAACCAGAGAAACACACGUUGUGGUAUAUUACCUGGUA

# Variants of: B1
# experimental-details: self-cleavage, relative activity (ratio to wild type); higher = more cleavage; co-transcriptional
Item-by-item account of self-cleavage
Just the number, please, no unit attached.

mutant-name	data-value
G19C U62C	0.283
G57A G69A	0.122
U14A U55A	0.201
G15U U20C	1
A45C A59G	0.208
A23C A28U	0.501

INPUT: # get_value(readout='self-cleavage', item= G34C C50U )
OUTPUT: 1.36

INPUT: State the recorded self-cleavage for this entry: A43C A71U
OUTPUT: 0.159

INPUT: Would you kindly share the measured self-cleavage for C16U G54A ?
OUTPUT: 0.518

INPUT: Need self-cleavage of U7C C38A , thanks.
OUTPUT: 0.185

INPUT: Returns the measured self-cleavage for the input variant. Input: A11C U52A
OUTPUT: 0.762
